Listed here are molecules together with their documented pIC50.
- target.or.test.system: CYP11A1 (Homo sapiens)
- Construct: endogenous in cells
- assay.explanation: CYP11A1 inhibition: pregnenolone biosynthesis measured by ELISA in NCI-H295R cells
- test.conditions: NCI-H295R cells treated for 24 hours, 10 concentrations in duplicates, read-out: IC50 on CYP11A1 inhibition (Group)
pIC50: −log10 of the molar value.

# example entries with known answers
[
  {
    "mol.smiles": "O=C(c1cncc(C2=CCOCC2)c1)N1CCOc2ccccc21",
    "pIC50": "5.60 to 6.70"
  },
  {
    "mol.smiles": "O=C(c1cncc(-c2ccc(F)c([N+](=O)[O-])c2)c1)N1CCOc2ccccc21",
    "pIC50": "5.60 to 6.70"
  },
  {
    "mol.smiles": "COc1ccc(-c2cncc(CC(=O)N3CCOc4ccccc43)c2)cc1",
    "pIC50": "5.60 to 6.70"
  }
]

input: Dear colleague, I am looking for the recorded pIC50 of the following molecule: O=C(c1cncc(-c2ccccc2F)c1)N1CCOc2ccccc21
output: > 7.30

input: Fill in the blank: the reported pIC50 of Fc1ccc(-c2cncc(CN3CCCc4ccccc43)c2)cc1 is ____.
output: 6.70 to 7.29

input: Given the entry CN(C)Cc1ccc(-c2cncc(C(=O)N3CCCc4ccccc43)c2)cc1 , report its measured pIC50.
output: 5.60 to 6.70

----------
- target.or.test.system: CYP11A1 (Homo sapiens)
- Construct: endogenous in cells
- assay.explanation: CYP11A1 inhibition: pregnenolone biosynthesis measured by ELISA in NCI-H295R cells
- test.conditions: NCI-H295R cells treated for 24 hours, 10 concentrations in duplicates, read-out: IC50 on CYP11A1 inhibition (Group)
pIC50: −log10 of the molar value.
Consider the following molecules and their measured pIC50 readings.

Below are worked cases with known answers.
[
  {
    "molecule": "CC1CCc2ccccc2N1C(=O)c1cncc(-c2ccc(F)cc2)n1 (centres unmarked)",
    "pIC50": "> 7.30"
  },
  {
    "molecule": "O=C(c1cnnc(-c2ccc(F)cc2)c1)N1CCCc2ccccc21",
    "pIC50": "> 7.30"
  },
  {
    "molecule": "CC1COc2ccccc2N1C(=O)c1cncc(-c2ccc(F)cc2)n1 (centres unmarked)",
    "pIC50": "> 7.30"
  }
]

input: Please look up its pIC50: Cc1cnn(-c2cncc(C(=O)N3CCCc4ccccc43)n2)c1
output: > 7.30

input: // returns reported pIC50 for input O=C(c1cncc(-c2ccc(F)cc2)c1)N1CCOC2CCCCC21 (centres unmarked)
output: 6.70 to 7.29

----------
- target.or.test.system: CYP11A1 (Homo sapiens)
- Construct: endogenous in cells
- Sequence (P05108 40-521): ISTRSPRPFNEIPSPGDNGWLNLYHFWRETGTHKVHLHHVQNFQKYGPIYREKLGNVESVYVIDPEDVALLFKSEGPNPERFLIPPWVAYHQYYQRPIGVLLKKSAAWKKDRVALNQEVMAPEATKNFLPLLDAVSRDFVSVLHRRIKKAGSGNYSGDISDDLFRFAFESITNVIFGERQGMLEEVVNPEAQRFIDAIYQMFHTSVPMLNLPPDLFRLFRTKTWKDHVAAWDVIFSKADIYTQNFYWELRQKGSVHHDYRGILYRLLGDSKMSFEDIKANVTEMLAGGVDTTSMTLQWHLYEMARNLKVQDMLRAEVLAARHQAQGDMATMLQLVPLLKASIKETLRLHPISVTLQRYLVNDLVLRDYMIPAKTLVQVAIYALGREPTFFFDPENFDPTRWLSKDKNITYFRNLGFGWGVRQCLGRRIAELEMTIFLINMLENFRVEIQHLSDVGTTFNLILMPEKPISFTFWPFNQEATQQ
- assay.explanation: CYP11A1 inhibition: pregnenolone biosynthesis measured by ELISA in NCI-H295R cells
- test.conditions: NCI-H295R cells treated for 24 hours, 10 concentrations in duplicates, read-out: IC50 on CYP11A1 inhibition (Group)
pIC50: −log10 of the molar value.
Measured pIC50 by item

[
  {
    "mol.smiles": "Cc1c(C(=O)N2CCOc3ccccc32)cncc1-c1ccccc1",
    "target.or.test.system": "CYP11A1 (Homo sapiens)",
    "pIC50": "6.70 to 7.29"
  }
]

input: Given COc1cccc2c1CCCN2C(=O)c1cncc(-c2ccccc2)c1 , state its recorded pIC50.
output: 5.60 to 6.70

input: If you can, please state the reported pIC50 value of O=C(c1cncc(-c2cccc(OC(F)(F)F)c2)c1)N1CCOc2ccccc21 .
output: 5.60 to 6.70

input: Field request: pIC50 | item: O=C(Cc1cncc(-c2ccc(F)cc2)c1)N1CCCc2ccccc21
output: 5.60 to 6.70

input: Fill in the blank: the reported pIC50 of Cc1c(C(=O)N2CCCc3ccccc32)cncc1-c1ccccc1 is ____.
output: 6.70 to 7.29

input: Sample COc1ccc(-c2cncc(C(=O)N3CCCc4ccccc43)n2)cc1 — what was its pIC50?
output: > 7.30

----------
- target.or.test.system: CYP11A1 (Homo sapiens, UniProt P05108)
- Construct: endogenous in cells
- assay.explanation: CYP11A1 inhibition: pregnenolone biosynthesis measured by ELISA in NCI-H295R cells
- test.conditions: NCI-H295R cells treated for 24 hours, 10 concentrations in duplicates, read-out: IC50 on CYP11A1 inhibition (Group)
pIC50: −log10 of the molar value.
pIC50 overview

Take a look at these entries with their results.
[
  {
    "molecule": "O=C(c1cncc(-c2ccccc2)c1)N1CCOc2ccccc21 [Compound 10]",
    "target.or.test.system": "CYP11A1 (Homo sapiens, UniProt P05108)",
    "pIC50": "> 7.30"
  },
  {
    "molecule": "O=C(c1cncc(-c2ccc(F)cc2)c1)N1CCCc2ncccc21 [Compound 42]",
    "target.or.test.system": "CYP11A1 (Homo sapiens, UniProt P05108)",
    "pIC50": "6.70 to 7.29"
  },
  {
    "molecule": "O=C(c1cncc(N2CCCC2)n1)N1CCOc2ccccc21 [Compound 76]",
    "target.or.test.system": "CYP11A1 (Homo sapiens, UniProt P05108)",
    "pIC50": "5.60 to 6.70"
  }
]

input: Requested field: pIC50. Item: Cc1c(C(=O)N2CCOc3ccccc32)cncc1-c1ccc(F)cc1 [Compound 5]
output: > 7.30

input: Reported pIC50, molecule CCOC(=O)C1CN(C(=O)c2cncc(-c3ccc(F)cc3)n2)c2ccccc2O1 (stereo not drawn) [Compound 35] : ____
output: > 7.30

input: Which pIC50 value belongs to O=C(c1cncc(-c2ccc(CO)cc2)c1)N1CCOc2ccccc21 [Compound 65] ?
output: 5.60 to 6.70

input: Reported pIC50 for O=C1CCN(C(=O)c2cncc(-c3ccccc3)c2)c2ccccc21 [Compound 36] : what is it?
output: > 7.30

input: GET /values?readout=pIC50&item= COc1cccc(-c2cncc(C(=O)N3CCOc4ccccc43)c2)c1 [Compound 50]
output: 6.70 to 7.29

input: Given O=C(c1cncc(-c2ccc(F)c(F)c2)c1)N1CCOc2ccccc21 [Compound 19] , state its recorded pIC50.
output: > 7.30

----------
Recorded pIC50 values for a group of compounds are listed next.
- target.or.test.system: CYP11A1 (Homo sapiens)
- Construct: endogenous in cells; host or cells: NCI-H295R
- Sequence (P05108 40-521): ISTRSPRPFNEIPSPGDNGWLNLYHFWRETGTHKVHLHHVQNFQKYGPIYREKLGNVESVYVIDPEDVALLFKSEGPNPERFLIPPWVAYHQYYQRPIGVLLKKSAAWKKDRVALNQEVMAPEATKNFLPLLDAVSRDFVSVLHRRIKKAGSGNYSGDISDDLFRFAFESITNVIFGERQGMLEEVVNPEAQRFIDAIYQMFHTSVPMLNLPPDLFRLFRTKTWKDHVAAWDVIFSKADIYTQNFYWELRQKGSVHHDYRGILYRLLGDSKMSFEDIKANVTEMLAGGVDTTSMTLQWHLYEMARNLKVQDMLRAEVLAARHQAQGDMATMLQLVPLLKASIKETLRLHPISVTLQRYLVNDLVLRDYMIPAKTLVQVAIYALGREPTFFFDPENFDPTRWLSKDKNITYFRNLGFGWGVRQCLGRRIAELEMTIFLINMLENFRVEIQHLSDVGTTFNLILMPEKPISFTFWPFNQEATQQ
- assay.explanation: CYP11A1 inhibition: pregnenolone biosynthesis measured by ELISA in NCI-H295R cells
- Assay type: cell-based
- test.conditions: NCI-H295R cells treated for 24 hours, 10 concentrations in duplicates, read-out: IC50 on CYP11A1 inhibition (Group)
pIC50: −log10 of the molar value.

[
  {
    "mol.smiles": "Fc1ccc(-c2cncc(CN3CCOc4ccccc43)c2)cc1",
    "pIC50": "5.60 to 6.70"
  },
  {
    "mol.smiles": "C=C(c1ccccc1)c1cncc(C(=O)N2CCCc3ccccc32)c1",
    "pIC50": "6.70 to 7.29"
  }
]

input: Quick one: pIC50 for O=C(c1cncc(-c2ccc(C(F)(F)F)cc2)c1)N1CCOc2ccccc21 ?
output: 6.70 to 7.29

Just for reference, patent US20240124431A1 is where these values come from.
